Reference source: patent US20240368157A1

- assayDetails: Approximate solubility estimates (solvent incremental addition, visual observation)
- Format: physicochemical
- statedConditions: MeOH:DCM (1:3), organic solvent or mixture, thermodynamic from solid, MeOH:DCM (1:3), ambient; read-out: Solubility
readoutKind: solubility (mg/mL)
Output spec: scalar in mg/mL, unitless text.

Lab book: solubility of CN(C)C(=O)Nc1cc(Oc2cnc3nc(Nc4cc(C(F)(F)F)cn(C)c4=O)n(C)c3c2C#N)ccn1 noted as 37

----------
- assayDetails: Approximate solubility estimates (solvent incremental addition, visual observation)
- Assay type: physicochemical
- statedConditions: MeOH:H2O (90:10), organic solvent or mixture, thermodynamic from solid, MeOH:H2O (90:10), aw = 0.29, ambient; read-out: Solubility
readoutKind: solubility

Lab book: solubility of CN(C)C(=O)Nc1cc(Oc2cnc3nc(Nc4cc(C(F)(F)F)cn(C)c4=O)n(C)c3c2C#N)ccn1 [Compound 1 Lot I] noted as 1000 µg/mL
